# system-under-test: human Her3 receptor on cells (T47D, MCF7) (human, UniProt P21860 20-1342); note: test concentration or dose not given here
# Sequence (P21860 20-1342 limits assumed, stated change not applied): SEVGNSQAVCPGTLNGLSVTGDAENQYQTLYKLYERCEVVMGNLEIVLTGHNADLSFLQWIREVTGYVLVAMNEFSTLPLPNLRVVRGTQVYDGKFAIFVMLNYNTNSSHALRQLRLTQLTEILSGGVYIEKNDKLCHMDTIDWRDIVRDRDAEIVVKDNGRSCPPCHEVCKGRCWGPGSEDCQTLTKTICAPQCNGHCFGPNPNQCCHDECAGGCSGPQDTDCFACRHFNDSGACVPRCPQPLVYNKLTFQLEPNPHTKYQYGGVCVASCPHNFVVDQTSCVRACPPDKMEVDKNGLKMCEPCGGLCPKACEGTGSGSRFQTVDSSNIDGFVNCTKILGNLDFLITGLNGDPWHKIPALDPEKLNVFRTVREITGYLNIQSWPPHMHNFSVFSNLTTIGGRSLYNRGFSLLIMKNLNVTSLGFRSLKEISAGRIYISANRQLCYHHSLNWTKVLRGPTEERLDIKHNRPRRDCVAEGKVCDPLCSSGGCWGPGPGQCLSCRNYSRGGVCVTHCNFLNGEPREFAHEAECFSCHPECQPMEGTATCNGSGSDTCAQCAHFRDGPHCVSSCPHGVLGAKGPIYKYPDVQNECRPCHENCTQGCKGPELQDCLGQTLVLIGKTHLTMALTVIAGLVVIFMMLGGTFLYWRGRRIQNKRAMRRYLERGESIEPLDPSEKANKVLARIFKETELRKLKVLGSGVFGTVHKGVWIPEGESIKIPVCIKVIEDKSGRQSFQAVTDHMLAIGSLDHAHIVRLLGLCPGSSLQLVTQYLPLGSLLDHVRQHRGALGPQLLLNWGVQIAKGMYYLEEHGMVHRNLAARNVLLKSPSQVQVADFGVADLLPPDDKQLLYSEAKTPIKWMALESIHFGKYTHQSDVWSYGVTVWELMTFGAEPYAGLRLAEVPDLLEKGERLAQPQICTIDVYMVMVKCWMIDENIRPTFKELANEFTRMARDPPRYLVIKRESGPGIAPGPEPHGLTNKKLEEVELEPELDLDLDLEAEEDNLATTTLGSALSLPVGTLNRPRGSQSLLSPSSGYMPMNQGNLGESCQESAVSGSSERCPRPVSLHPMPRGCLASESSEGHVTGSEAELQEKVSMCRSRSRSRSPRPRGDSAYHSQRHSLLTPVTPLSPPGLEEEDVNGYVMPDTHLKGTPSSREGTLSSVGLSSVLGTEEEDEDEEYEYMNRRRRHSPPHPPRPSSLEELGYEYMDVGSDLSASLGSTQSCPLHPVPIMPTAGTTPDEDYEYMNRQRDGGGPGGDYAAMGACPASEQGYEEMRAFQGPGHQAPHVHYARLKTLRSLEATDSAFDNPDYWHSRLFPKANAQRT
# measurement-notes: cell-based or functional assay
readout-type: % Receptor Internalization (T47D cells, FACS) (%)

| binder | endpoint-unit | readout-value |
| --- | --- | --- |
| 588E14 (antibody, V domains shown, Purified mouse IgG from a hybridoma; also called 588E14-HC; 588E14-LC) VH: EVQLQQSGPELVGPGESVKISCKGSGYAFTDYGMHWVKQSHAKRLEWIGVITIYDGHTNYNQNFKGKAALTVDKSSNTAYLELARMTSEDSAIYYCARGDYDLFWYLDVWGAGTSVTVSS VL: DIVMTQTPLSLTVSLGDQASISCRSSQNIKHSDGNTYLEWYLQKPGQSPKLLIYKVSNRFSGVPDRFSGSGSGTDFTLKISRVEAEDLGVYFCFQGSHVPLTFGAGTKLELKR | % | 52 |
| PO-1G2-B6 (antibody, V domains shown, Purified mouse IgG from a hybridoma; also called PO-1G2-B6-HC; PO-1G2-B6-LC) VH: EVQLQQSGPELVKPGASVKISCKASGYSFTGYHIHWMKQSHVESLEWIGRINPYSGVTDYNQNFKDKANLTVDQSSSTAYMELHSLTSEDSAFYYCARTDYYGPWFAYWGQGTLVTVSA VL: DIQMTQSPLSLPVSLGDQASISCRSSPSLVHSNGNTYLHWYLQKPGQSPKLLIYTVSNRFSGVPDRFSGSGSGTDFTLKINRVEAEDLGVYFCSQTTHVPWTFGGGTKLEIKR | % | 13 |
| 588E10 (antibody, V domains shown, Purified mouse IgG from a hybridoma; also called 588E10-HC; 588E10-LC) VH: EVQLQQSGPKLVGPGESVKISCKGSGYTFTDYGMHWVKQSHAKRLEWIGVITIYDGHTNYNQNFKGKAALTVDKSSNTAYLELARMTSEDSAIYYCARGDYDLFWYLDVWGAGTTLTVSS VL: DVVMTQTPLSLTVSLGDQASISCRSSQNIKHSDGNTYLEWYLQKPGQSPKLLIYKVSNRFSGVPDRFSGSGSGTDFTLKISRVEAEDLGVYFCFQGSHVPLTFGAGTKLELKR | % | 51 |
